pIC50: −log10 of the molar value.
pIC50 for JNK1α1 (Homo sapiens, UniProt P45983) - collated from the literature.

Compound: Cn1cnc(-c2c(C#N)csc2NC(=O)Cc2cccc3ncccc23)n1
pIC50: > 7.00

Compound: O=C(Cn1c(=O)ccc2cc(C(F)(F)F)ccc21)Nc1sc(Cl)cc1-c1ncn[nH]1
pIC50: > 7.00

Compound: Cc1n[nH]c(-c2c(C)csc2NC(=O)Cc2cccc3ncccc23)n1
pIC50: > 7.00

Compound: CC(C)(C)Nc1ncc(C(N)=O)c(NC2CCC(=O)N(CCO)C2)n1 (stereo not drawn)
pIC50: > 7.00

Compound: CCCCCNC(=O)n1ccc2c(C(=O)c3c[nH]c4ncc(-c5cccnc5)cc34)cccc21
pIC50: ≥ 5.00

Exercise: Missing value: pIC50, JNK1α1 (Homo sapiens, UniProt P45983), entry `Cc1n[nH]c(-c2c(Cl)csc2NC(=O)CN2C(=O)CCc3ncccc32)n1` . Fill in?
Key: > 7.00

Exercise: Next: `O=C(Cn1c(=O)ccc2nc(C(F)(F)F)ccc21)Nc1scc(Cl)c1-c1ncn[nH]1`
Key: > 7.00

====

pIC50: −log10 of the molar value.
The entries below pair compounds with pIC50 values for JNK1α1 (Homo sapiens, UniProt P45983), as found in several publications.

Compound: CS(=O)(=O)Nc1cccc(-c2cnc3[nH]cc(C(=O)c4cc(NS(C)(=O)=O)ccc4F)c3c2)c1
pIC50: ≥ 5.00

Compound: O=C([C@H]1CC[C@H](Nc2nccc(-n3ccc4c(-c5ccccc5)cccc43)n2)CC1)N1CCC(O)CC1
pIC50: 6.58

Exercise: Quick check: pIC50 on JNK1α1 (Homo sapiens, UniProt P45983), item `O=C(NCc1ccccc1)Nc1cccc(C(=O)c2c[nH]c3ncc(-c4cccnc4)cc23)c1` ?
Key: ≥ 5.00

Exercise: `O=C(O)COc1ccc(F)c(Cc2c[nH]c3ncc(-c4cccnc4)cc23)c1F` ?
Key: ≥ 5.00

Exercise: Moving on to the next compound: `CNC(=O)c1cc(-n2ncc3cc(Nc4c(F)cccc4Cl)c(OC)cc32)cs1`
Key: < 6.00

Exercise: Would you kindly repeat that for `COc1ccc(NC(=O)Nc2cccc(C(=O)c3c[nH]c4ncccc34)c2)cc1OC` ?
Key: ≥ 5.00

Exercise: Please do the same for `COCCNC(=O)c1cc(-n2ncc3cc(Nc4ccccc4Cl)c(F)cc32)cs1` as well.
Key: > 6.70

Exercise: Next compound: `O=C(Cc1cccc2cnccc12)Nc1ccsc1-c1csc(Cl)n1`
Key: 5.00 to 7.00

Exercise: Now consider CC(C)(C)Nc1ncc(C(N)=O)c(NCC2CCC(=O)N2)n1 (stereo not drawn) .
Key: < 6.00

====

// read-out pIC50, gathered for JNK1α1 (Homo sapiens) from published studies
pIC50: −log10 of the molar value.

Study these solved cases before continuing.
Molecule: O=C(Cc1cccc2ncccc12)Nc1scc(Cl)c1-c1ncn[nH]1
pIC50: > 7.00
--
Molecule: C[C@@H]1CC[C@@H](Nc2cc(NC3CCCC3O)ncc2C(N)=O)C[C@H]1O (some centres unmarked)
pIC50: < 6.00
--
Molecule: CS(=O)(=O)CCCOc1cccc2c1ccn2-c1ccnc(N[C@H]2CC[C@H](C(=O)N3CCC(OC(=O)[C@@H]4CCCN4)CC3)CC2)n1
pIC50: 8.13
--
Molecule: O=C(c1c[nH]c2ncc(-c3cccnc3)cc12)c1cccc2c1ccn2COCc1ccccc1
pIC50: ≥ 5.00
--
Molecule: Cc1ccncc1NC(=O)c1ccnc2[nH]c(-c3ccc(NCCCN4CCCC4)cc3)nc12
pIC50: 7.00

Exercise: Give the measured pIC50 of `CN1CCN=C1NC(=O)c1cc(-n2ncc3nc(Nc4ccccc4Cl)ccc32)cs1` .
Key: < 6.00

Exercise: And for `COCCNC(=O)c1cc(-n2ncc3nc(Nc4ccccc4Cl)ccc32)cs1` ?
Key: < 6.00

Exercise: Record: `C[C@@H]1CC[C@@H](Nc2nc(NC(C)(C)C)ncc2-n2cncn2)C[C@H]1O`
Key: 6.30 to 7.00

Exercise: Proceed to `CCCCNC(=O)Nc1ccc(F)c(C(=O)c2c[nH]c3ncc(Br)cc23)c1`
Key: ≥ 5.00

Exercise: Thanks! And `CNC(=O)c1cc(-n2ncc3cc(Nc4c(F)cccc4Cl)c(COC)cc32)cs1` ?
Key: 6.00 to 6.70

Exercise: Also `O=C(Cn1c(=O)ccc2c(C(F)(F)F)cccc21)Nc1scc(Br)c1-c1ncn[nH]1` ?
Key: > 7.00

====

Endpoint summary: pIC50, system: JNK1α1 (Homo sapiens, UniProt P45983), multiple sources combined.
pIC50: −log10 of the molar value.

Molecule: Cc1ccccc1NC(=O)Nc1cccc(C(=O)c2c[nH]c3ncc(-c4cccnc4)cc23)c1
pIC50: ≥ 5.00
//
Molecule: COC(=O)c1c(Cc2ccc(C(=O)N[C@@H]3[C@@H]4C[C@@H]5C[C@H]3C[C@@](NC(=O)C(C)(C)C)(C5)C4)cc2)c(=O)c2cccnc2n1-c1ccccc1
pIC50: 7.41
//
Molecule: O=C(NC1CC1)c1cc(-n2ncc3cc(Nc4ccccc4Cl)c(F)cc32)cs1
pIC50: > 6.70

Exercise: Checklist item: pIC50 tested on JNK1α1 (Homo sapiens, UniProt P45983), entry `COc1ccc(CC(=O)Nc2ccsc2-n2cncn2)cc1` , value?
Key: < 5.00

Exercise: Entry to check: `O=C(Cn1c(=O)ccc2cc(C(F)(F)F)ccc21)Nc1scc(Cl)c1-c1ncn(CCCN2CCCC2)n1`
Key: > 7.00

Exercise: Please give the result for `O=C(c1ccc(Cl)cc1Cl)c1c[nH]c2ncc(-c3cccnc3)cc12` too.
Key: ≥ 5.00

Exercise: What about `O=C(CN1C(=O)CCc2cc(C(F)(F)F)ccc21)Nc1scc(Br)c1-c1ncn[nH]1` ?
Key: > 7.00

Exercise: Do the same for `Nc1cccc(-c2cnc3[nH]cc(Cc4ccccc4F)c3c2)c1` please
Key: ≥ 5.00

====

Compiled literature IC50, tested on JNK1α1 (Homo sapiens).

Below, 5 compounds whose answers are already recorded.
Compound: C[C@@H]1CC[C@@H](Nc2nc(NC3CC4(COC4)C3)ncc2C(N)=O)C[C@H]1O
IC50: < 100 nM
//
Compound: CN(C)c1ccc(Nc2ccc3cc[nH]c3n2)cc1
IC50: ≤ 10000 nM
//
Compound: C[C@@H]1CC[C@@H](Nc2cc(NC3CCC3)ncc2C(N)=O)C[C@H]1O
IC50: 500 to 1000 nM
//
Compound: Cc1n[nH]c(-c2c(C)csc2NC(=O)Cc2ccc(OCCCN3CCCCC3)cc2)n1
IC50: 100 to 10000 nM
//
Compound: C[C@@H]1CC[C@@H](Nc2nc(N3CCOCC3)ncc2C(N)=O)C[C@H]1O
IC50: 500 to 1000 nM

Exercise: Report IC50 for Nc1cc(=O)n([C@@H]2CC[C@@H](O)C2)c2nc(NC3CCCCC3)ncc12 (racemic) please.
Key: 11.1 nM

Exercise: Here is the next compound: `O=C(Cc1cccc2cnccc12)Nc1ccsc1-c1ncco1`
Key: 100 to 10000 nM

Exercise: Cool, now `COCCNC(=O)c1cc(-n2ncc3nc(Oc4ccccc4Cl)ccc32)cs1`
Key: 200 to 1000 nM

====

Target or system JNK1α1 (Homo sapiens); metric pIC50; compiled from varied reports.
pIC50: −log10 of the molar value.

Exercise: Checklist item: pIC50 tested on JNK1α1 (Homo sapiens), entry `O=C(NC1CN(C2CC2)C1)c1cc(-n2ncc3cc(Oc4ccccc4Cl)ccc32)cs1` , value?
Key: < 6.00

Exercise: Do the same for `O=C(Cn1c(=O)ccc2cc(C(F)(F)F)c(F)cc21)Nc1scc(Br)c1-c1ncn[nH]1` please
Key: > 7.00

Exercise: Same question, `O=C(Nc1ccc(F)cc1)Nc1cccc(C(=O)c2c[nH]c3ncc(-c4cccnc4)cc23)c1` this time
Key: ≥ 5.00

Exercise: Continue with `O=c1ccc2cnc(NC3CCCCC3)nc2n1C1CCCC1`
Key: 6.97

Exercise: What would you report for `COCn1nnc(-c2ccsc2NC(=O)Cc2ccc(OC)cc2)n1` ?
Key: < 4.30

====

Compiled record: pIC50 values for JNK1α1 (Homo sapiens) across several sources.
pIC50: −log10 of the molar value.

Guide cases for pIC50, answers given:
Smiles string: CC(=O)c1cccc(Nc2cnc3[nH]ccc3c2)c1
Endpoint name: pIC50
Value measured: ≥ 5.00
//
Smiles string: CN(C)CCCn1cnc(-c2c(Cl)csc2NC(=O)Cn2c(=O)ccc3cc(C(F)(F)F)ccc32)n1
Endpoint name: pIC50
Value measured: > 7.00
//
Smiles string: C[C@@H]1CC[C@@H](Nc2nc(NC(C)(C)C)ncc2[N+](=O)[O-])C[C@H]1O
Endpoint name: pIC50
Value measured: < 6.00
//
Smiles string: NC(=O)c1cccc(-c2cnc3[nH]cc(C(=O)c4cc(O)ccc4F)c3c2)c1
Endpoint name: pIC50
Value measured: ≥ 5.00
//
Smiles string: O=C(N[C@H]1CCOC1)c1cc(-n2ncc3cc(Nc4ccccc4Cl)c(F)cc32)cs1
Endpoint name: pIC50
Value measured: > 6.70

Exercise: Look up pIC50 for this compound: `CCCS(=O)(=O)Nc1ccc(F)c(Cc2c[nH]c3ncc(C(C)C)cc23)c1F`
Key: ≥ 5.00

Exercise: How about `Cc1csc(NC(=O)Cc2ccc(OCCn3ccnc3)cc2)c1-c1ncn[nH]1` ?
Key: 5.00 to 7.00
